# target.of.assay: Leukotriene A-4 hydrolase (Homo sapiens)
# Sequence (P09960 whole entry): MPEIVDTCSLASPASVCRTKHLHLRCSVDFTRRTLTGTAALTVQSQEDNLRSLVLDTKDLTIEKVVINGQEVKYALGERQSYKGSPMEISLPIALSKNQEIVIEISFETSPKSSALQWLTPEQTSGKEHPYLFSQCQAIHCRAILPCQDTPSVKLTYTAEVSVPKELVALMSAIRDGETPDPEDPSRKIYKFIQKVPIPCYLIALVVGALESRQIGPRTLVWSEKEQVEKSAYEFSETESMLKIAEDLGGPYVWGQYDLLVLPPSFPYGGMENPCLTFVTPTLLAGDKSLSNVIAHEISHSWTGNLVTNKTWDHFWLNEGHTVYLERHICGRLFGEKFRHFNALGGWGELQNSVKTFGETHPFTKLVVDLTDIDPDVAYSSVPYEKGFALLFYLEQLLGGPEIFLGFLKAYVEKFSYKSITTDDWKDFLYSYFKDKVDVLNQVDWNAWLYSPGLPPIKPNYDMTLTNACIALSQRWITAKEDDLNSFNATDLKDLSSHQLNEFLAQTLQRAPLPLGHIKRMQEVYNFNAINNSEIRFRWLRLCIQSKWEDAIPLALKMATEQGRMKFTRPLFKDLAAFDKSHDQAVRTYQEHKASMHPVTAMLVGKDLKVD
# assay.text: Inhibition of N-terminal (His)6 and Xpress-tagged LTA4H (unknown origin) expressed in Escherichia coli BL21(DE3) cells assessed as reduction in aminopeptidase activity by measuring p-nitroanilide release using L-Alanine-p-nitroanilide incubated for 10 mins by UV plate reader based assay
readout: IC50 (µM)

- chemical.string: "COc1ccccc1Cc1ccc(-c2csc(N)n2)cc1"
  target.of.assay: "Leukotriene A-4 hydrolase (Homo sapiens)"
  reported.measurement: 0.1
- chemical.string: "Nc1nc(-c2ccc(Cc3ccccc3C(F)(F)F)cc2)cs1"
  target.of.assay: "Leukotriene A-4 hydrolase (Homo sapiens)"
  reported.measurement: 8.35

* * *

# target.of.assay: Leukotriene A-4 hydrolase (Homo sapiens)
# assay.text: Activation of N-terminal (His)6 and Xpress-tagged LTA4H (unknown origin) expressed in Escherichia coli BL21(DE3) cells assessed as increase in aminopeptidase activity by measuring p-nitroanilide release using L-Alanine-p-nitroanilide incubated for 10 mins by UV plate reader based assay
1 (yes) if AC50 is below 5 µM. 0 (no) if not; exact matches included in 0 (no).

- chemical.string: "Cc1cccc(Cc2ccc(-c3csc(N)n3)cc2)c1"
  classification: "1 (yes)"
- chemical.string: "Nc1nc(-c2ccc(Cc3ccccc3)cc2)cs1"
  classification: "1 (yes)"
- chemical.string: "Nc1nc(-c2ccc(Cc3ccc(C(F)(F)F)cc3)cc2)cs1"
  classification: "1 (yes)"
- chemical.string: "COc1ccc(Cc2ccccc2)cc1"
  classification: "1 (yes)"
- chemical.string: "COc1ccc(Cc2ccc(-c3csc(N)n3)cc2)cc1"
  classification: "1 (yes)"
- chemical.string: "Nc1nc(-c2ccc(Cc3cccc(C(F)(F)F)c3)cc2)cs1"
  classification: "0 (no)"
- chemical.string: "COc1cccc(Cc2ccc(-c3csc(N)n3)cc2)c1"
  classification: "0 (no)"
- chemical.string: "Cc1ccccc1Cc1ccc(-c2csc(N)n2)cc1"
  classification: "0 (no)"
- chemical.string: "Cc1ccc(Cc2ccc(-c3csc(N)n3)cc2)cc1"
  classification: "1 (yes)"
